B1: TPR 5TU (parent)
chain: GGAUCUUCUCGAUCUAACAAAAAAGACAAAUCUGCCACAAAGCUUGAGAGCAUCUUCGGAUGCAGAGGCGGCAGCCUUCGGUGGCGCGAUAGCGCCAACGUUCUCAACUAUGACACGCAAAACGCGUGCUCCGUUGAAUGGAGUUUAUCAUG

- Variants of: B1
- MEASUREMENT_NOTES: polymerase ribozyme fitness, log enrichment relative to wild type (log ratio); higher = more active; in vitro selection for triplet polymerase activity
This sample holds only a part of the variants without activity.
QUANTITY: polymerase ribozyme fitness (log ratio)

>>> df
                         variant_description  recorded_result
 0         A49U U55G C103A U111C A138G G152A           ≤ -4.2
 1                       A16G A17G A19C G50A            0.928
 2                                C54A C125U            -3.73
 3                          G74A A106G A122U           ≤ -4.2
 4                      G50A G84A C95G U146C           -0.861
 5                                 A21C G62C           -0.587
 6                      A66C G92C C96G A120G            -4.14
 7  C32G C76U G88C C96A C103U U127G C129A U139A A142U           ≤ -4.2
 8                      A37G G42C G88U A115G           ≤ -4.2
 9                     G59C C87A U109A G133C           ≤ -4.2
10                A41C G88A G92A A115U U151G           ≤ -4.2
11                    G92U A115C A119U G140C           ≤ -4.2
12                 A22U A49C C69G G70C U101A           ≤ -4.2
13                           U55A G67A U127A           ≤ -4.2
14                                 C93U A97U            -2.14
15      C8A A26G A37C G62A A120G G140C G152A            -4.13
16            C54A C63G C69G C76G U82C C131G           ≤ -4.2
17           U33G G46C C95U C99A A107G G133U           ≤ -4.2

These entries and their values trace back to the RNAGym collection of RNA variant scans (doi:10.1073/pnas.2313332121).
